System: OVCAR-8 ovarian
Assay: NCI-60 one-dose screen, 48 h (100 = growth as untreated, 0 = no growth, -100 = all killed)
Settings: 10 µM unless noted
The panel holds about 83,000 compounds, 20% with a hit somewhere; the sample as a whole holds those more often.
Kindly return true (1) if reported growth is no lower than 70%; return false (0) if it is lower.

compound | discrete label
COc1cccc(O)c1/C=C(/C)c1ccc2c(OC)cccc2[o+]1 | true (1)
CC1(C)CC[C@]2(C(=O)O)CC[C@]3(C)C(=CC[C@@H]4[C@@]5(C)CC/C(=N\OCCC#N)C(C)(C)[C@@H]5CC[C@]43C)[C@@H]2C1 | true (1)
Nc1nc(-c2cccc([N+](=O)[O-])c2)c(N=Nc2cccc([N+](=O)[O-])c2)s1 | false (0)

# bool: growth of COc1ccc([C@@H]2[C@@H](O)C(=O)N2c2cc(OC)c(OC)c(OC)c2)cc1F >= 70%
false (0)

Also CCCCCc1ccc(S(=O)(=O)Nc2cccc(-c3csc(NCCN4CCN(C)CC4)n3)c2)cc1 , if possible.
true (1)

Likewise for O=S(=O)(NCCCNc1nccc(-c2[nH]c(-c3ccccc3)nc2-c2ccc(Cl)c(O)c2)n1)c1cccc2ccccc12 ?
false (0)

What would you report for COc1ccc(S(=O)(=O)NCCCNc2nccc(-c3[nH]c(-c4ccccc4)nc3-c3ccc(Cl)c(O)c3)n2)cc1 ?
false (0)

Also check Cc1c(Cl)cccc1S(=O)(=O)Nc1ccc2c(c1)C(=O)N(C1CCC(=O)NC1=O)C2=O (stereo not drawn)
false (0)

* * *

Tested on: EKVX NSCLC
Assay: NCI-60 one-dose screen, 48 h (100 = growth as untreated, 0 = no growth, -100 = all killed)
Conditions: 10 µM unless noted
The panel holds about 83,000 compounds, 20% with a hit somewhere; the sample as a whole holds those more often.
observable: growth (%)
// note: answer is a bare numeric in %

compound | tested target | observable | readout units | obs value
CC1(C)[C@@H](O)CC[C@]2(C)[C@H]3CC[C@@H]4[C@H]5[C@H](C(=O)/C=C\c6ccc([N+](=O)[O-])cc6)CC[C@]5(O)CC[C@@]4(C)[C@]3(C)CC[C@@H]12 | EKVX NSCLC | growth | % | 53.1

Which growth reading was recorded for the compound c1ccc(C(c2nc3ncncc3[nH]2)N2CSc3nc4ncncc4n3C2)cc1 (stereo unspecified) ?
94.4

Try the compound COc1cccc2cc(-c3cc4ccccc4[nH]3)/c(=N\NC(=O)c3ccc(Cl)cc3)oc12
33.8

Consider next the compound Nc1nc(N)c2c(n1)NC(c1ccc(Cl)cc1)CC(c1ccc(Nc3nc(NCCO)nc(N4CCOCC4)n3)cc1)=N2 (stereo unspecified) in the same way.
89.8

Do the same for Cn1ccnc1C(=O)/C=C/c1ccc(CNC(=O)c2ccc(Cl)cc2)cc1 please
26.4

Could you do the same for CCCCCc1ccc(S(=O)(=O)Nc2cccc(-c3csc(NCCN4CCN(C)CC4)n3)c2)cc1 , please?
84.2

Could you do the same for CNC(=O)c1cc(N2CCc3cc(NC(=O)Nc4ccc(Cl)c(C(F)(F)F)c4)ccc32)ccn1 , please?
55.1

Likewise for NS(=O)(=O)c1ccc(Nc2nc(SCc3ccccc3)nc3ccccc23)cc1 ?
77.7

One more compound: CC1(C)[C@@H](O)CC[C@]2(C)[C@H]3CC[C@@H]4[C@H]5[C@H](C(=O)/C=C\c6ccncc6)CC[C@]5(O)CC[C@@]4(C)[C@]3(C)CC[C@@H]12
42.8

Cool, now O=S(=O)(Nc1ccc(I)cc1Cl)c1ccc(-c2cnc(C3CC3)o2)cc1
54.2

* * *

Test system: DU-145 prostate
Assay: NCI-60 one-dose screen, 48 h
Conditions: 10 µM unless noted
Method: Cells are grown in 96 well plates and exposed to the test compound for 48 hours. Compounds are tested at a single concentration, which is 10^-5 M for most compounds. The reported endpoint is percent growth (GI% or GIPRCNT), where numbers from 0 - 100% represent growth inhibition, and numbers from -100% - 0 represent cell death. For example, a value of 40 represents 60% growth inhibition. A value of 0 means no net growth occurred over the course of the experiment. […]
About 83,000 compounds went through this panel and 20% of them were active in at least one assay; those are over-represented in the sample as a whole. Activity calls are given as the source filed them. Rule for the calls: active = growth percent below 10; inactive = the rest.
Outcomes you can answer with include only these: active, inactive

For orientation, consider the following solved cases.
smiles | discrete label
NC(N)=Nc1ccc(Oc2cccc(Oc3ccc(Cl)c(C(F)(F)F)c3)c2)cn1 | active
C=C=COc1cccc(/C(N)=N/C(N)=N/c2nc3ccccc3s2)c1 | inactive

Hey, what did the test say about Nc1ncc(-c2ccc3ncnc(N4CCc5cc(F)c(F)cc54)c3c2)cn1 ?
inactive

Another compound: CCCCNNC(=O)c1ccc(-c2cccc(F)c2F)cc1
inactive

Can you check CN1CCN(Cc2ccc(NC(=O)c3cncc(C#Cc4cnn5cccnc45)c3)cc2C(F)(F)F)CC1 next?
active

* * *

Tested on: OVCAR-8 ovarian
Assay: NCI-60 one-dose screen, 48 h
Conditions: 10 µM unless noted
The panel holds about 83,000 compounds, 20% with a hit somewhere; the sample as a whole holds those more often. Active and inactive are the calls of the source. The calls were made as follows: active = growth percent below 10; inactive = the rest.
Your answer must be one of the following: class 1 = active, class 0 = inactive

molecule | discrete label
N#C/C(=C\c1ccc(-c2ccc(Cl)cc2Cl)o1)c1ccc(F)cc1 | class 0
Cc1[nH]c(C(=O)Nc2ccccc2OCc2cccc(C(=O)N3CCC[C@@H](N)C3)c2)c(Cl)c1Cl | class 1
O=C(/C=C/c1ccc(F)cc1)c1ccc(O)cc1 | class 0
COc1cc(/C=N/NC(=O)c2cn(C3CC3)c3c(OC)c(N4CC5CCCNC5C4)c(F)cc3c2=O)ccc1O (stereo not given) | class 0

Field: outcome | Entry: CCCn1cnc2c(c1=N)C(c1ccc(OC)cc1)c1sc3c(C)cccc3c1O2 (stereo not given)
class 0

Same again, this time with CCn1c(SCC(=O)Nc2cccc(C(=O)/C=C/c3ccc(C)cc3)c2)nc2ccccc2c1=O
class 0

Same question, O=C(Nc1nc2ccc([N+](=O)[O-])cc2s1)Nc1ccccc1Br this time
class 0

What do we get for Cc1ccc(C2=NN(C)C(=O)C3(CCCC3)C2)cc1 ?
class 0

Continue with Nc1nc(-c2cccc([N+](=O)[O-])c2)c(N=Nc2ccccc2)s1
class 0

Another molecule to look at: O=C(O)c1ccc(-n2cc(CNc3cc(F)c(F)c(F)c3)c(-c3ccc(F)cc3)n2)cc1
class 0

* * *

System: HOP-62 NSCLC
Assay: NCI-60 one-dose screen, 48 h (100 = growth as untreated, 0 = no growth, -100 = all killed)
Details: 10 µM unless noted
Compounds without any hit were thinned out: in the full panel of roughly 83,000, 20% have a hit. The source made the active and inactive calls. Rule for the calls: active = growth percent below 10; inactive = the rest.
Reported growth by item:

Worked set:
compound | growth
CCN1CCN(C(=O)[C@]23CCC(C)(C)C[C@H]2C2=CC[C@@H]4[C@@]5(C)Cc6c([nH]c7ccccc67)C(C)(C)[C@@H]5CC[C@@]4(C)[C@]2(C)CC3)CC1 | 110% (inactive)
C[C@@H](Nc1c(C#N)cnc2ccc(-c3cnc(Cl)c(NS(C)(=O)=O)c3)cc12)c1ccccc1 | 11.6% (inactive)
Nc1cc(F)ccc1NC(=O)c1ccc(NC(=O)C/C=C/c2cccnc2)cc1 | 48.7% (inactive)
NC(N)=Nc1ccc(Oc2cccc(Oc3ccc(Cl)c(C(F)(F)F)c3)c2)cn1 | -56% (active)

Now, please, on to the next compound.
Which measured growth belongs to CCC(CC)N1C(=O)/C(=c2\sc3n(c2=O)NC2C(N=3)N(CC)C(=O)N2CC)c2ccccc21 (stereo not drawn) , tested on HOP-62 NSCLC?
73.2% (inactive)

* * *

# key: entry, value: growth
System: SW-620 colon
Assay: NCI-60 one-dose screen, 48 h (100 = growth as untreated, 0 = no growth, -100 = all killed)
Details: 10 µM unless noted
Compounds without any hit were thinned out: in the full panel of roughly 83,000, 20% have a hit.
All answers are understood in %, so give the number only.

Take a look at these entries with their results.
smiles | growth, %
N#Cc1ccccc1Cn1c2nc(=N)c3ccccc3c-2nc2ccccc21 | 54.6
C=C(C=O)[C@@H]1CC[C@]2(CO)CC[C@]3(C)[C@H](CC[C@@H]4[C@@]5(C)CCCNC(C)(C)[C@@H]5CC[C@]43C)[C@@H]12 | 1.41
Cn1ccnc1C(=O)/C=C/c1ccc(CNC(=O)c2ccc(S(F)(F)(F)(F)F)cc2)cc1 | 9.31
CS(=O)(=O)c1ccc(-n2cc(/C=N/O)c(-c3ccccc3)n2)cc1 | 104

Turning to the following compound.
Given NC(N)=Nc1ccc(Oc2cccc(NC(N)=Nc3ccc(Cl)c(C(F)(F)F)c3)c2)cc1 , state its recorded growth.
57

* * *

Test system: UO-31 renal
Assay: NCI-60 one-dose screen, 48 h
Settings: 10 µM unless noted
Compounds without any hit were thinned out: in the full panel of roughly 83,000, 20% have a hit. Activity calls are given as the source filed them. How the source made its calls: active means growth percent below 10; inactive means the rest.
# output must be one of active, inactive

smiles | discrete label
CNC(=O)c1c(NC(=O)c2ccccc2C(F)(F)F)sc2c1CCC(=O)C2 | active
CCN1CCN(Cc2ccc(C(=O)Nc3ccc(C)c(Oc4ccc(-c5[nH]nc6ncnc(N)c56)cc4)c3)cc2C(F)(F)F)CC1 | inactive
CCN(CC)c1ccc(NC2=C(Cl)C(=O)c3nc(C)ccc3C2=O)cc1 | active
Clc1ccc(N/N=c2/oc3ccccc3cc2-c2cc3ccccc3[nH]2)cc1 | inactive

Called result for COc1cc(OC)cc(C(=O)Nc2cccc(C#Cc3cccc4[nH]nc(N)c34)c2)c1
inactive
